Tested on: CEM cells HIV-1 protection, formazan growth assay
Experiment: NCI AIDS Antiviral Assay
Details: measured here: growth of uninfected CEM cells
pIC50: −log10 of the molar value.

{"Molecule": "Cc1cc(Cl)ccc1NC(=O)C(=O)Cc1nc2ccccc2o1", "Value Prefix": "<", "pIC50": 4.94}
{"Molecule": "COc1cc(C2C(Cl)C(=O)N2NC(=O)c2ccc(N)cc2)cc(Br)c1O (stereo not given)", "Value Prefix": "=", "pIC50": 4.88}
{"Molecule": "CC[N+](C)(C)C1=C([O-])C(F)(F)C1=O", "Value Prefix": "<", "pIC50": 3.70}
{"Molecule": "CCOC(=O)C1C(C(=O)OCC)N2c3ccccc3-c3cccnc3[C@@H]2[C@H]1C(=O)OCC (stereo not given in full)", "Value Prefix": "=", "pIC50": 4.02}
{"Molecule": "C(#CP(c1ccccc1)c1ccccc1)P(c1ccccc1)c1ccccc1.C(#CP(c1ccccc1)c1ccccc1)P(c1ccccc1)c1ccccc1.C(#CP(c1ccccc1)c1ccccc1)P(c1ccccc1)c1ccccc1.C(#CP(c1ccccc1)c1ccccc1)P(c1ccccc1)c1ccccc1.[Pt].[Pt]", "Value Prefix": "=", "pIC50": 5.32}
{"Molecule": "O=c1oc2ccccc2c(O)c1C(c1ccco1)c1c(O)c2ccccc2oc1=O", "Value Prefix": "=", "pIC50": 4.47}
{"Molecule": "CCOC(=O)/C(F)=C/c1cccc(C)c1", "Value Prefix": "<", "pIC50": 3.90}
{"Molecule": "NNS(=O)(=O)c1ccc(OCC(=O)O)cc1", "Value Prefix": "=", "pIC50": 3.74}
{"Molecule": "CC1(C)OC2[C@@H](CO[C@@]3([C@H]4OC(C)(C)O[C@@H]4CO)OC(C)(C)O[C@@H]23)O1 (stereo not given in full)", "Value Prefix": "<", "pIC50": 3.70}
{"Molecule": "Cc1nc(CC2C(CO[Si](C)(C)C(C)(C)C)OC(n3ccc(=O)[nH]c3=O)C2O[Si](C)(C)C(C)(C)C)no1 (stereo not given)", "Value Prefix": "=", "pIC50": 5.18}
{"Molecule": "COC1/C=C/OC2(C)Oc3c(C)c(O)c4c(O)c(c(/C=N/N5C(C)CN(Cc6cccc(O)c6)CC5C)c(O)c4c3C2=O)NC(=O)/C(C)=C\\C=C\\C(C)C(O)C(C)C(O)C(C)C(OC(C)=O)C1C (stereo not given)", "Value Prefix": "=", "pIC50": 5.19}
{"Molecule": "N#CCCC(C#N)(CCC#N)c1ccccc1", "Value Prefix": "<", "pIC50": 3.09}
{"Molecule": "COc1ccc(C2N(c3ccc(F)c([N+](=O)[O-])c3)C(=O)N3C(c4ccc(OC)cc4)N(c4ccc(F)c([N+](=O)[O-])c4)C(=O)N23)cc1 (stereo not given)", "Value Prefix": "=", "pIC50": 4.47}
{"Molecule": "c1ccc(C2Nc3ccccc3C3OCCCC23)cc1 (stereo not given)", "Value Prefix": "<", "pIC50": 4.15}
{"Molecule": "COc1ccc(/C(C)=C2\\CCCN(Cc3ccccc3)C2)cc1", "Value Prefix": "=", "pIC50": 4.51}
{"Molecule": "O=[N+]([O-])c1ccc(C2Nc3cc(Cl)c(Cl)cc3S(=O)(=O)N2O)cc1 (stereo not given)", "Value Prefix": "=", "pIC50": 4.19}
{"Molecule": "FC(F)C(F)(F)N1c2ccccc2Sc2ccccc21", "Value Prefix": "=", "pIC50": 4.14}
{"Molecule": "N[C@@H]1C[C@H](N)c2c(Cl)sc(Cl)c21", "Value Prefix": "=", "pIC50": 3.85}
{"Molecule": "O=C(O)c1cccc(S(=O)(=O)NN2C(=O)CSC2c2ccccc2)c1 (stereo not given)", "Value Prefix": "<", "pIC50": 3.70}
{"Molecule": "CC1C(=O)CC2C3(C)CCC2(C(C)C(=O)O)C(=O)C13 (stereo not given)", "Value Prefix": "=", "pIC50": 3.65}

====

Test system: CEM cells HIV-1 protection, formazan growth assay
Assay: NCI AIDS Antiviral Assay
Conditions: measured here: growth of uninfected CEM cells
Measured Attribute: log10 of IC50 (log10 of the value in µM)

{"Molecule": "N#C/C(=C\\N1C(=O)/C(=C/c2cccc([N+](=O)[O-])c2)SC1=S)c1nc2ccccc2s1", "log10 of IC50": 1.47}
{"Molecule": "Oc1ccc(-c2nc(-c3ccc(F)cc3)c(-c3ccc4ccccc4n3)[nH]2)cc1", "log10 of IC50": 1.33}
{"Molecule": "CCN(C(=N)C#N)c1ccccc1", "log10 of IC50": 2.48}
{"Molecule": "COc1ccc(C(=O)/C=C/c2ccc(OCC(=N)N)cc2)cc1", "log10 of IC50": 0.99}
{"Molecule": "CN1C(C)(C)CC(=O)C(Br)C1(C)C (stereo unspecified)", "log10 of IC50": 2.07}
{"Molecule": "CCc1c(Cc2ccccc2)n(COCCCO[Si](C)(C)C(C)(C)C)c(=O)[nH]c1=O", "log10 of IC50": 1.00}
{"Molecule": "NC(=S)NNCC(=O)CC(O)(C(F)(F)F)C(F)(F)Cl (stereo unspecified)", "log10 of IC50": 2.09}
{"Molecule": "CC(=O)c1cccn1/C=C(\\OC(=O)OC(C)(C)C)c1ccc[nH]1", "log10 of IC50": 2.21}
{"Molecule": "COc1ccc(C(=O)CC(c2ccccc2)[C@H]2C(c3ccc(OC)cc3)=Nc3c(nc(SC)n(C)c3=O)NC2c2ccccc2)cc1 (stereo partly specified)", "log10 of IC50": 1.28}
{"Molecule": "CCOC(=O)[C]1([Bi]([CH3])[CH3])N=NC(C(=O)OC)=C1C(=O)OC (stereo unspecified)", "log10 of IC50": 1.42}
{"Molecule": "CC(=O)c1cccc(NC2C(N)C(NC(=O)N(C)C)(C(C)O)C(C)(O)C2(O)COC(=O)c2c(C)cccc2O)c1 (stereo unspecified)", "log10 of IC50": -1.37}
{"Molecule": "CCOC(=O)[C@@H]1[C@@H](c2ccccc2)N(C)O[C@@]1(c1ccccc1)C(F)(F)F", "log10 of IC50": 1.68}

====

Measured IC50 of individual entries
System: CEM cells HIV-1 protection, formazan growth assay
Test: NCI AIDS Antiviral Assay
Settings: measured here: growth of uninfected CEM cells

{"Molecule": "Nc1cc(=O)[nH]c(=S)n1-c1ccc(Cl)cc1", "Unit Of Measurement": "µM", "Value Prefix": ">", "IC50": 200}
{"Molecule": "NC(=O)C(F)(Cc1ccccc1)C(=O)O (stereo unspecified)", "Unit Of Measurement": "µM", "Value Prefix": ">", "IC50": 200}
{"Molecule": "O=c1oc2ccccc2c(O)c1C(c1ccc2c(c1)OCO2)N1CCOCC1 (stereo unspecified)", "Unit Of Measurement": "µM", "Value Prefix": ">", "IC50": 100}
{"Molecule": "CS(=O)(=O)c1nc(Cl)c(Cl)c(C#N)c1Cl", "Unit Of Measurement": "µM", "Value Prefix": "=", "IC50": 0.457}
{"Molecule": "OCCC[N+]12CCCN1CCC2", "Unit Of Measurement": "µM", "Value Prefix": ">", "IC50": 200}
{"Molecule": "NS(=O)(=O)c1ccc(Nc2c3ccccc3nc3c(C(=O)NC(CO)(CO)CO)cccc23)cc1", "Unit Of Measurement": "µM", "Value Prefix": "=", "IC50": 3.39}
{"Molecule": "CC(C)(C)C(=O)N(C(=S)OCc1ccccn1)c1ccccc1", "Unit Of Measurement": "µM", "Value Prefix": "=", "IC50": 40.7}
{"Molecule": "CN(C)CCCNC(=O)c1cc(NC(=O)c2cc(NC(=O)c3cc(NC(=O)CCCn4ccc(CO)c4CO)cn3C)cn2C)cn1C", "Unit Of Measurement": "µM", "Value Prefix": "=", "IC50": 0.38}
{"Molecule": "O=[N+]([O-])c1cc(-c2nc(=S)[nH][nH]2)ccc1O", "Unit Of Measurement": "µM", "Value Prefix": "=", "IC50": 257}
{"Molecule": "Nc1nc(Cl)cc(NCC2(CO)CC(c3ccccc3)C2)n1 (stereo unspecified)", "Unit Of Measurement": "µM", "Value Prefix": "=", "IC50": 1.58}
{"Molecule": "C/C(CC(=O)Nc1ccc(Cl)c(Cl)c1)=N/NC(=O)C[N+](C)(C)C", "Unit Of Measurement": "µM", "Value Prefix": ">", "IC50": 34.7}

====

compounds and their reported pEC50
Test system: CEM cells HIV-1 protection, formazan growth assay
Assay: NCI AIDS Antiviral Assay
pEC50: −log10 of the molar value.
Measured Attribute: pEC50

{"Compound": "CC(=O)OCC1OC(n2cc(F)c(=O)[nH]c2=O)C(NC(=O)N(CCCl)N=O)C(OC(C)=O)C1OC(C)=O (stereo not given)", "Measured Result": "< 3.34"}
{"Compound": "COc1cc2c3c(n(C)c(=O)c2cc1OC)-c1cc2c(cc1C3=O)OCO2", "Measured Result": "< 4.84"}
{"Compound": "COc1cc(/C=C\\C(=O)O)ccc1O", "Measured Result": "< 3.70"}
{"Compound": "Nc1n[n+]([O-])c2cc([N+](=O)[O-])ccc2[n+]1[O-]", "Measured Result": "< 4.70"}
{"Compound": "CC1=CC(=O)N(n2c(C)n[nH]c2=O)C1=O", "Measured Result": "< 3.70"}
{"Compound": "COc1ccc(C(=O)/C(Br)=C/C(=O)O)cc1", "Measured Result": "< 3.37"}
{"Compound": "CCOC(=O)CCC(NC(=O)c1ccc(Oc2nc3c(N)cc(C(F)(F)F)cc3nc2-c2ccccc2)cc1)C(=O)OCC (stereo not given)", "Measured Result": "< 3.70"}
{"Compound": "Cc1ccc(S(=O)(=O)c2c(O)c3ccc(O)c(C)c3oc2=O)cc1", "Measured Result": "< 3.70"}
{"Compound": "COc1cc(C2c3cc4c(cc3C(O)C3CCC(=O)N23)OCO4)cc(OC)c1OC (stereo not given)", "Measured Result": "< 3.70"}
{"Compound": "O=C(CC1=Nc2nnc(CCCCCCCc3nnc4n3C(=O)C(CC(=O)c3ccc5ccccc5c3)=N4)n2C1=O)c1ccc2ccccc2c1", "Measured Result": "< 5.39"}
{"Compound": "Cc1c(-c2nnc(-c3ccccc3)o2)c(=O)n(-c2ccccc2)n1C", "Measured Result": "< 3.70"}
{"Compound": "COc1cc2c(c(OC)c1OC)C(=O)[C@@H]1[C@H]2N1C(=O)NCCCl", "Measured Result": "< 3.70"}
{"Compound": "Cc1c2ccccc2nc(CS(=O)c2ccccc2)[n+]1[O-] (stereo not given)", "Measured Result": "< 3.70"}
{"Compound": "COC1/C=C/OC2(C)Oc3c(C)c(O)c4c(O)c(c(C=NNC(=O)c5ccc(N)cc5)c(O)c4c3C2=O)NC(=O)/C(C)=C/C=C/C(C)C(O)C(C)C(O)C(C)C(OC(C)=O)C1C (stereo not given)", "Measured Result": "< 3.86"}
{"Compound": "Cc1ccccc1N1C(=O)CC2(CCCC2)C1=O", "Measured Result": "< 3.44"}
{"Compound": "CCCN=C(C(C)=O)N(C)C", "Measured Result": "< 2.80"}
{"Compound": "O=c1onc2n1-c1ccc(Cl)cc1C(=S)N1CSCC21 (stereo not given)", "Measured Result": "< 3.70"}
{"Compound": "C/C(=C1/N=C(c2cc([N+](=O)[O-])ccc2Cl)N(C2=CC=C(Cl)CC2)C1=O)c1cc2ccccc2oc1=O", "Measured Result": "< 4.72"}
{"Compound": "CSc1nc2c(c(=O)n1C)N=C(c1ccccc1)[C@H](C(CC(=O)c1ccccc1)c1ccccc1)C(c1ccccc1)N2 (stereo not given in full)", "Measured Result": "< 3.70"}
{"Compound": "COc1ccc(C(=O)CC(c2ccccc2)[C@H]2C(c3ccc(OC)cc3)=Nc3c(nc(SC)n(C)c3=O)NC2c2ccccc2)cc1 (stereo not given in full)", "Measured Result": "< 3.70"}
